- Target system: SHP2-C SH2;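 further: peptide library displayed on the E. coli surface as eCPX fusions, selected cells deep-sequenced, score is each peptide's frequency after selection divided by its frequency in the input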
- Test method notes: SH2 binding enrichment of the phosphorylated peptide, bacterial display (enrichment ratio); higher = better substrate or ligand; peptides without Tyr show the background
Property: SH2 binding enrichment

The following sequences have reported results that may help.
Sequence string: SIKDKYVMALY [KCNH2_Y611_T613M]
SH2 binding enrichment: 0.679
//
Sequence string: IFHENYNAGTF [CFI_Y421_YF]
SH2 binding enrichment: 0.684
//
Sequence string: FLTLHYDAKPQ [ANG_Y38_Q36L]
SH2 binding enrichment: 0.844
//
Sequence string: TIQRMYGCDVG [HLA-A_Y123_I121R]
SH2 binding enrichment: 0.968
//
Sequence string: IKSSIYDNRKE [ARAP2_Y380]
SH2 binding enrichment: 0.741

A = NPQKSYFILLF [WAS_Y83_R86L_YF]
B = STFVPCEIKVQ [L1CAM_Y784_Y784C]
Challenge: Field: lower recorded SH2 binding enrichment (choose A or B ) Which one? Tell me its label.
Response given: B
(B: 0.578, A: 0.944)
